Biological target: Cytochrome P450 2C9 (Homo sapiens) (UniProt P11712)
Sequence (P11712 whole entry, looked up): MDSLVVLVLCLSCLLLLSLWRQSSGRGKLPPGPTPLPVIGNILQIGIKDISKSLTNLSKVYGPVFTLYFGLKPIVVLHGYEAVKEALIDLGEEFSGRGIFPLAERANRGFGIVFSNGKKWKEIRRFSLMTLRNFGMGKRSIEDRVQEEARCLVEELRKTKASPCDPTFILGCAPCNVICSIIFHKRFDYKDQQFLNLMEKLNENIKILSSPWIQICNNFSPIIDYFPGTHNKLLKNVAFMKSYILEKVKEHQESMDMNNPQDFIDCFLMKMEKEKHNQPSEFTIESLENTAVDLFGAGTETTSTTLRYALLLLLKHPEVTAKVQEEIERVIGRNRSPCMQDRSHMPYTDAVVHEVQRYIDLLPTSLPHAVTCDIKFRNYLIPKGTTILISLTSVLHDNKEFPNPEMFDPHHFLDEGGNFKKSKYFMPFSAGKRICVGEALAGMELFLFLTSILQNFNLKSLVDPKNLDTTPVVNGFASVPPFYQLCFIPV
Assay: Cytochrome panel assay with activity outcomes
Conditions: recombinant CYP, pro-luciferin dealkylation, luminescence, p450-cyp2c9; series mostly up to 57.1 µM
Out of some 16,000 compounds screened, about 4,000 (25%) were called active. Another 26% or so got no clear call; they are omitted. The call rests on the fitted dose curve; in most records, active means well fitted curve in the direction sought with a large enough effect; inconclusive means small, poorly fitted or top-dose-only effect, or effect the other way; inactive means no such curve, though single readings can be large or run the other way. These entries were drawn from the full list.
Give one outcome, nothing more. List: active, inactive

Query string: Would you mind telling me which call this test gave Cc1nn(CC(O)COc2ccc3c(c2)CCC3)c(C)c1Br (stereo unspecified) ?
Result string: inactive

Query string: How did this test come out for Cc1ccc(NC(=S)Nc2nc(CC(=O)Nc3ccccc3)cs2)cc1 ?
Result string: active

Query string: # fetch the recorded call for COC(=O)Cn1cnc(=O)c(C#N)c1/C=C/N(C)C here
Result string: inactive

Query string: Short answer needed: outcome of this test for O=C(/C=C/c1cccnc1)c1ccc(NC(=O)c2cccc(Br)c2)cc1 ?
Result string: active

Query string: I would be grateful if you could indicate the recorded call for Cc1ccc(C(C2C(=O)CC(C)(C)CC2=O)C2C(=O)CC(C)(C)CC2=O)s1 .
Result string: active

Query string: Test call for this molecule, please: O=C(N/C(=C\c1cccnc1)C(=O)N1CCOCC1)c1cccc(Br)c1
Result string: inactive

###

Biological target: Cytochrome P450 2C9 (Homo sapiens)
Assay: Cytochrome panel assay with activity outcomes; on activity, negative = inhibition: on the % scale 0 is the no-effect control and ±100 the full control effect
Conditions: recombinant CYP, pro-luciferin dealkylation, luminescence, p450-cyp2c9; series mostly up to 57.1 µM
Screen size: about 16,000 compounds; about 4,000 (25%) were called active. Another 26% or so got no clear call; they are omitted. Not all results are given here.
Would you mind telling me the reported activity, negative = inhibition of each entry?

Recorded result, COC(=O)[C@H](C)NC(=O)C/C=C\[C@@H](C)[C@H]1C=C[C@H](O)[C@@H](CO)O1 , activity, negative = inhibition: -20.2% [at 11.4 µM] (inactive)

Looking up O=C1C[C@H]2C(=O)[C@@H]1[C@@H](C(=O)O)[C@H]2C(=O)O , I found its activity, negative = inhibition recorded as 19.5% [at 11.4 µM] (inactive)

In plain terms, COc1ccccc1CNc1ncnc2ccc(-c3cccc(C#N)c3)cc12 has a documented activity, negative = inhibition of -23.5% [at 2.29 µM] (inactive)

Lab book: activity, negative = inhibition of O=C(O)C[C@H](S)C(=O)O noted as 10.9% [at 11.4 µM] (inactive)

Looking up CC(C)C(O)(C(C)C)C(C)C , I see its activity, negative = inhibition listed as -0.763% [at 11.4 µM] (inactive)

Short answer for Oc1ccccc1CNCc1ccccc1O : activity, negative = inhibition was -4.69% [at 11.4 µM] (inactive)

###

Biological target: Cytochrome P450 2C9 (Homo sapiens)
Experiment: Cytochrome panel assay with activity outcomes
Conditions: recombinant CYP, pro-luciferin dealkylation, luminescence, p450-cyp2c9; series mostly up to 57.1 µM
Screen size: about 16,000 compounds; about 4,000 (25%) were called active. About 26% were inconclusive and are not listed. The call rests on the fitted dose curve; in most records, active means well fitted curve in the direction sought with a large enough effect; inconclusive means small, poorly fitted or top-dose-only effect, or effect the other way; inactive means no such curve, though single readings can be large or run the other way. The list is a sample of the results.
# output must be one of active, inactive

Query string: Which result was noted for this molecule in the test: Cc1cc(NCCO)c2ccccc2n1
Result string: inactive

Query string: Please state the recorded outcome for this molecule: Cc1ccc(C(=O)Nc2nc3ccccc3n3nnnc23)cc1
Result string: inactive

Query string: Short answer needed: outcome of this test for CS(=O)(=O)N1CCC2(CCN(C(=O)Nc3cccc(F)c3)CC2)CC1 ?
Result string: inactive

Query string: Field: outcome | Entry: CCCCNc1nc(-c2ccccc2)c(C(=O)OCC)cc1C#N
Result string: active

Query string: Which result was noted for this molecule in the test: COc1cccc(N(CC(=O)Nc2cccc(C(C)=O)c2)S(C)(=O)=O)c1
Result string: active

Query string: Please let me know the test result on file for COC(=O)c1ccc(CSc2nc3cc(Cl)ccc3s2)o1 .
Result string: active

Query string: I would be grateful if you could indicate the recorded call for CCC(=O)Nc1nonc1-c1nc2ccccc2n1N(C(=O)CC)C(=O)CC .
Result string: active

Query string: # outcome recorded in this test, key = Cc1ccc(NC(=O)C2(NC(=O)c3cccc(N4C(=O)CSC4c4ccccc4)c3)CCCCC2)cc1 (stereo unspecified)
Result string: active

Query string: Could you check what this test reported for COc1cccc(/C=N/n2nnc3c(cnn3-c3ccccc3)c2=O)c1 ?
Result string: inactive

Query string: Please indicate how the test categorized CN1CCCN(C2C3CC4CC(C3)CC2C4)CC1 (stereo unspecified) .
Result string: inactive

Query string: Lab log entry: CCCNc1c(F)c(F)c2c(C)c3ccccc3nc2c1F — outcome as called in the assay?
Result string: active
